Tested on: MOLT-4 leukemia
protocol: NCI-60 one-dose screen, 48 h
measurement.conditions: 10 µM unless noted
Compounds without any hit were thinned out: in the full panel of roughly 83,000, 20% have a hit. Active and inactive are the calls of the source. Rule for the calls: active = growth percent below 10; inactive = the rest.
Outcomes: active, inactive

• Clc1ccc(-c2cnc3c(-c4ccnc(N5CCNCC5)c4)cnn3c2)cc1 = active
• COc1ccc(-n2c(COc3ccc(F)cc3)n[nH]c2=S)cc1 = inactive
• CCOC(=O)Nc1ccc2nc(Sc3ccc(Cl)cc3)sc2c1 = inactive
• CC(C)CC(=O)C(CCc1ccccn1)C(C)C (stereo unspecified) = inactive
• COc1ccc([C@H]2c3[nH]c4ccccc4c3C[C@H]3C(=O)N(CCCCCCC(=O)NO)CC(=O)N23)cc1 = inactive
• CCOC(=O)Cc1cc(Br)c(OCc2ccccc2)c(Br)c1 = inactive
• COC(=O)CSc1ccc(Cl)cc1 = inactive
• C[N+](C)(C)CCCCCCCCCC[N+](C)(C)C = inactive
• CSC1=N/C(=C\c2cccc(OCc3ccc(Cl)cc3)c2)C(=O)N1 = inactive
• COc1cc(C2CC(c3ccc(Cl)cc3)=NN2C(C)=O)ccc1Oc1ccnc2cc(Cl)ccc12 (stereo unspecified) = inactive
• CCN(CC)c1ccc2c(cc1=O)[C@@H](NC(C)=O)CCc1cc(OC)c(OC)c(OC)c1-2 = active

====

Test system: M14 melanoma
protocol: NCI-60 one-dose screen, 48 h (100 = growth as untreated, 0 = no growth, -100 = all killed)
measurement.conditions: 10 µM unless noted
This is part of a sample that, as a whole, favours compounds with a hit. Of some 83,000 tested, about 20% had one in any assay. Calls of active or inactive are those of the source. The calls were made as follows: active = growth percent below 10; inactive = the rest.
recorded.metric: growth

* O=C(CCl)N1c2ccccc2Oc2ccc3ccccc3c21 | -70% (active)
* O=C1SCN(Cc2ccccc2)CN1Cc1ccccc1 | 99.1% (inactive)
* CCCCCN(CCCCC)C(=O)C(CCC(=O)O)NC(=O)c1ccc(Cl)c(Cl)c1 (stereo unspecified) | 109% (inactive)
* CN(C)c1ccc(C2(Cl)c3ccccc3N(C)c3ccccc32)cc1 | 53.4% (inactive)
* COc1cc2c(c(OC)c1O)C(=O)C(OC)C(c1ccc(O)c(O)c1)O2 (stereo unspecified) | -3.36% (active)
* COc1nccc2c(Sc3ccccc3)nc(N)nc12 | 118% (inactive)
* CNC(=O)c1c(NC(=O)c2ccc(C(C)C)cc2)sc2c1CCC(=O)C2 | -39.4% (active)
* Cc1[nH]c2ccccc2c1C1=CC(=O)C=CC1=O | 79.4% (inactive)
* O=C1OCC2=C1C(c1ccccc1)c1cc3c(cc1N2CCO)CCC3 (stereo unspecified) | -15.1% (active)
* C#Cc1cccc(Nc2nc3cc([N+](=O)[O-])ccc3nc2Nc2ccc(O)cc2)c1 | -52.5% (active)
* COc1ccc(NC(=O)Cn2c(=O)sc3c(-c4ccc(Cl)cc4)cc(-c4ccc(Cl)cc4)nc32)cc1 | 94.1% (inactive)

====

System: NCI-H23 lung
protocol: NCI-60 one-dose screen, 48 h (100 = growth as untreated, 0 = no growth, -100 = all killed)
measurement.conditions: 10 µM unless noted
This is part of a sample that, as a whole, favours compounds with a hit. Of some 83,000 tested, about 20% had one in any assay.
recorded.metric: growth (%)

* CCC(=O)NC1=C(Cl)C(=O)C(NC(=O)CC)=C(Cl)C1=O | 94
* Cc1ccccc1C1CC(=O)c2ccccc2C1C (configuration not stated) | 100
* CCN(CC)c1cc(C)c(Cc2c(OC)ccc3ccccc23)cc1C | 93.7
* CC(=O)Oc1ccccc1C(=O)Nc1ncc([N+](=O)[O-])s1 | 6.3
* CN1C(=O)N(C)C2C1NN=c1s/c(=C\c3ccc(C(F)(F)F)cc3)c(=O)n12 (configuration not stated) | 39.5
* Fc1cc(-c2cnc3nonc3n2)c(Cl)cc1Cl | 94.2
* CS(=O)(=O)c1ccc(Cl)c([N+](=O)[O-])c1 | 103
* COc1ccc2nc3ccccc3c(NCc3ccc(C)cc3)c2c1 | 28.3
* NC(CCC(=O)NC(CS)C(=O)NCC(=O)O)C(=O)O (configuration not stated) | 108
* COc1ccc(-c2ccc(-c3ccc(C(=N)N)s3)s2)cc1 | -70.3
* CC(C)c1ccc2c(c1)CCC1C2CCCC1(C)NCc1ccccc1 (configuration not stated) | 73
* CS(=O)(=O)c1ccc(C(=O)Nc2ccc(Cl)c(-c3ccccn3)c2)c(Cl)c1 | 27.3
* COc1cc(CN(c2ccc(C)cc2)C2OC(=O)c3ccccc32)cc(OC)c1OC (configuration not stated) | 29
* COc1cccc(/C(C)=N/NC(=O)CSc2nc3ccccc3c(=O)n2CCc2ccc(S(N)(=O)=O)cc2)c1 | 31.6
* Cc1ccncc1NC=O | 101
* CCOCCNc1ccc(S(=O)(=O)c2ccc(N)cc2)cc1N | 92.5
* Nc1ncnc2c1N=C(c1ccc3c(c1)OCO3)CC(c1ccc(Cl)cc1)N2 (configuration not stated) | 81.8
* OCCN(CCO)c1ccc2ccccc2c1 | 101
* CCCCCCCCOC(=O)C(C)OC(=O)OCCOCCOC(=O)OC(C)C(=O)OCCCCCCCC (configuration not stated) | 113
* CC(=O)NC1C(O[C@H]2C[C@H]3[C@@H]4CC=C5C[C@@H](O)CC[C@]5(C)[C@H]4CC[C@]3(C)[C@H]2[C@H](C)C(=O)CCC(C)C)OCC(O)C1O (some centres not stated) | 65.9
* COc1ccc(C2NC(=O)c3cc4c(cc3N2)OCO4)cc1 (configuration not stated) | 8.1
* Nc1c(Br)cc2c(c1Br)Cc1cc(Cl)ccc1-2 | 89.2

====

System: CAKI-1 renal
protocol: NCI-60 one-dose screen, 48 h (100 = growth as untreated, 0 = no growth, -100 = all killed)
measurement.conditions: 10 µM unless noted
Method: Growth inhibition of the CAKI-1 human tumor cell line is measured as a screen for anti-cancer activity. Cells are grown in 96 well plates and exposed to the test compound for 48 hours. Compounds are tested at a single concentration, which is 10^-5 M for most compounds. The reported endpoint is percent growth (GI% or GIPRCNT), where numbers from 0 - 100% represent growth inhibition, and numbers from -100% - 0 represent cell death. For example, a value of 40 represents 60% growth inhibition. […]
This is part of a sample that, as a whole, favours compounds with a hit. Of some 83,000 tested, about 20% had one in any assay.
recorded.metric: growth (%)

* C=C(C)[C@@H]1CC[C@]2(C(=O)NS(=O)(=O)c3ccccc3)CC[C@]3(C)[C@H](CC[C@@H]4[C@@]5(C)CC[C@H](OC(=O)NS(=O)(=O)c6ccccc6)C(C)(C)[C@@H]5CC[C@]43C)[C@@H]12 | 24.8
* O=C(/C=C/c1ccccc1)c1c[nH]c2ccccc2c1=O | 4.66
* COc1ccc(C2c3cccn3-c3ccccc3N2C(C)=O)cc1 (centres undefined) | 84.2
* C=C(C)[C@@H]1CC[C@]2(C(=O)NC(COC(=O)C(Cl)Cl)(COC(=O)C(Cl)Cl)COC(=O)C(Cl)Cl)CC[C@]3(C)[C@H](CC[C@@H]4[C@@]5(C)CC[C@H](OC(C)=O)C(C)(C)[C@@H]5CC[C@]43C)[C@@H]12 | 48.4

====

System: SW-620 colon
protocol: NCI-60 one-dose screen, 48 h
measurement.conditions: 10 µM unless noted
About 83,000 compounds went through this panel and 20% of them were active in at least one assay; those are over-represented in the sample as a whole. The source made the active and inactive calls. Rule for the calls: active = growth percent below 10; inactive = the rest.
Outcome codes: active, inactive

* O=C(CC(=O)c1ccccc1F)Nc1ccc([N+](=O)[O-])cc1 | inactive
* Cc1ccc(C)c2c1SC1=NNC(Oc3ccc(Cl)cc3)=C(C#N)C(=N)N12 | inactive
* C[N+](C)(C)CC(=O)N/N=C\c1ccco1 | inactive
* CN(C)c1ccc(/C=C\c2cccc[n+]2C)cc1 | inactive
* O=c1c2cc(Br)cc(Br)c2nc(-c2ccc(Cl)cc2)n1/N=C\c1ccccc1F | inactive
* NC(N)=NC1CCCCC1 | inactive
* COc1ccc(/C=C/C(=O)CCC(=O)O)cc1OC | inactive
* NC(N)=N/N=C/c1cccc(Cl)c1Cl | active
* Cc1cc(N)cc(C)c1-c1c(Br)cc(N)cc1Br | inactive
* CCCCc1nc(Cl)c(C2CC(c3ccc(S(N)(=O)=O)cc3)=NN2c2cc(Cl)cc(Cl)c2)[nH]1 (centres undefined) | inactive
* Cc1nn(-c2ccccc2)c2nc3c(nc12)C1=NCCN1C(c1ccc(Cl)cc1)N3 (centres undefined) | inactive
* COc1cccc(NC(=O)OC(C)C)c1 | inactive
* Cc1nc(N)nc2c1CCC(Nc1ccccc1)S2 (centres undefined) | inactive
* COc1ccc(C2NC(=O)c3cc4c(cc3N2)OCO4)cc1 (centres undefined) | inactive
* COc1cc(OC)c(C(=O)/C=C/c2cccc(OC(C)=O)c2)cc1CC=C(C)C | inactive
* C=CC(=O)N1CN(C(=O)C=C)CN(C(=O)C=C)C1 | inactive
* CCNCCCn1c2c(c3ccc(Cl)cc3c1=O)C(=O)c1cc(OC)cnc1-2 | active
* COc1cccc(N2CCN(c3ncnc4cc[nH]c34)CC2)c1 | inactive
* CCN(CC)CCNC(=O)n1cc(-c2ccncc2)c(-c2ccc(Cl)c(OC)c2)n1 | inactive
* COc1ccc(/C=C(\C#N)c2cc(OC)c(OC)c(OC)c2)cc1 | inactive
* CC(C)(C)[Si](C)(C)OC1[C@@H](O[Si](C)(C)C(C)(C)C)[C@@H](CNC(=O)NC(=O)NC(=O)CCl)O[C@H]1n1cnc2c(NC(=O)Nc3ccccc3)ncnc21 (some centres undefined) | inactive
* CCN1C(=O)N(CC)C2C1N=C(SC)N2/N=C/C=C/c1ccccc1OC (centres undefined) | inactive
* Cc1cccc2nc3ccccc3c(Nc3ccc(NS(C)(=O)=O)cc3)c12 | inactive
* CCN(CC)c1cc(C)c(Cc2c(OC)ccc3ccccc23)cc1C | inactive
* NS(=O)(=O)c1ccc(CCn2c(SCC(=O)N/N=C/c3cccnc3)nc3ccccc3c2=O)cc1 | inactive
* CCOC(=O)C1=C(C)NC(=S)NC1c1ccccc1 (centres undefined) | inactive
* COc1ccccc1/C=C/C(=O)CCC(=O)O | inactive
* CC1=CC(=O)OC1C/C=C(\C)CCC1[C@@]2(C)CCC[C@@](C)(C(=O)O)C2CC[C@@]1(C)O (some centres undefined) | inactive
* Fc1cc(-c2cnc3nonc3n2)c(Cl)cc1Cl | inactive
* O/N=C1\c2ccccc2-c2ccc(Br)cc21 | inactive
* Cc1nn(-c2cccc(Cl)c2)c(C)c1N=Nc1ccc(Br)cc1 | inactive
* COc1ccc(C(=O)N2N=C(c3ccc(F)cc3)CC2c2cn(-c3ccccc3)nc2-c2ccccc2)cc1 (centres undefined) | inactive
* CSC1=N/C(=C\c2cccc(OCc3ccc(Cl)cc3)c2)C(=O)N1 | inactive
* COc1ccc(/C=N/NC(N)=S)c(OC)n1 | inactive
* O=C(Nc1ccc(Br)cc1)Nc1cccc(Br)c1 | inactive
* Nc1c(C(=O)C[C@@H](N)CO)ccc2c1C(=O)CCO2 | active
* COc1cnc2c(c1)C(=O)c1c-2n(CCCN2CCN(C)CC2)c(=O)c2cc(Cl)ccc12 | active
* COc1cc(CN(c2ccc(C)cc2)C2OC(=O)c3ccccc32)cc(OC)c1OC (centres undefined) | inactive
* COc1cc(C2CC(c3ccc(Cl)cc3)=NN2C(C)=O)ccc1Oc1nc2c(c(=O)n(C)c(=O)n2C)n1C (centres undefined) | inactive
* COc1cc(NCCC2CCCCN2)c2ncccc2c1OC (centres undefined) | inactive
* CCN1C(=O)N(CC)C2C1NC(=O)N2/N=C/C=C/c1ccccc1 (centres undefined) | inactive
* O=C(Nc1ccc(Br)cc1)c1ccc(Cl)c(Cl)c1 | inactive
* COc1cc(NC(=O)CSc2nc3ccc(Cl)cc3c(=O)n2Cc2ccccc2)cc(OC)c1OC | inactive
* Cc1ccsc1C(=O)CC(=O)C(F)(F)C(F)(F)C(F)(F)F | inactive
